Reported protein stability index by item:
- method: protein stability index of a GFP-peptide fusion (GPS, HEK-293T) (PSI 1-6); higher = more stable;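 also: 24-mer peptide tiles fused after GFP, lentivirally expressed, FACS-sorted into six equal bins by GFP/DsRed ratio, decoded by Illumina sequencing, PSI is the read-weighted mean bin number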
- applied.conditions: treatment: MLN4924 1 uM, 8 h; c terminus: a fixed tail appended

Some solved entries appear below for comparison.
{"ordered.residues": "GYYSEKLEAIQLDGEILFSLLQKV [TBC1D10A]", "measurement.label": "protein stability index", "result": 2.53}
{"ordered.residues": "ADTKKRHTPRGHAESTSNRQPRKQ [SMOC2]", "measurement.label": "protein stability index", "result": 5.29}
{"ordered.residues": "HFVDEHGKDQGINIRQKVKELVEF [CLINT1]", "measurement.label": "protein stability index", "result": 3.83}
{"ordered.residues": "LDPWFAGSSNVGINRWRFLLQCLE [CRY1]", "measurement.label": "protein stability index", "result": 2.54}
{"ordered.residues": "TYTYTSRPRALPCQRSRYRDSLTQ [RSPH3]", "measurement.label": "protein stability index", "result": 3.18}

Any idea what protein stability index was measured for YVYKAASEGKVLTLAALLLNRSES [FEM1B] ?
2.62

Quick one: QVFLDRINRADYCPECYPDNPANR [TOR1AIP2]
2.9

Quick one: KIDDLMQEITEQQDIAQEISEAFS [CHMP4C]
4.67

Quick one: IYLINQKWFGRKRTLSAFLCLGGL [SLC22A15]
3.01

Quick one: MADKAKPAKAANRTPPKSPGDPSK [TPPP]
5.39
